# ASSAY_EXPLANATION: binders of probe aFST on microarray, primary screen, stem cell growth factor project, biochemical, small-molecule microarray, fluorescence 635/667 (AID 1086);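 also: score merges 667 nm fluorescence with signal-to-noise of each printed compound spot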
# CONDITION_NOTES: higher = more signal
MEASUREMENT_KIND: composite z-score
Lab note: record just the number, no unit beside it.

Here is how some compounds turned out for composite z-score.
CCOC(=O)C[C@H]1[C@H](OC(=O)c2ccc(C(=O)c3ccccc3)cc2)[C@@H](NC(=O)c2ccc(-c3ccccc3)cc2)c2cc(OCCCO)ccc2N1C(=O)c1ccc2ccccc2n1 :: 0.465
O=C1[C@H]2[C@H]3[C@H](O)[C@H](O)CC(=NO[C@@H]4O[C@H](CO)[C@@H](O)[C@H](O)[C@H]4O)[C@@H]3CC[C@H]2C(=O)N1Cc1ccc2c(c1)OCO2 :: 0.181
CCOC(=O)[C@H](Cc1ccccc1)NC(=O)CCC1CC(OC(=O)NCc2ccc3c(c2)OCO3)CC2(CCCC(COC(=O)NCC(c3ccccc3)c3ccccc3)O2)O1 (stereo partly specified) :: 0.359
O[C@@H](Cc1ccccc1)[C@H]1C2C=CCCC(c3ccccc3)=C2CN1Cc1cccc(Cl)c1 (stereo partly specified) :: 0.26

QUERY: Give the value of composite z-score reported for the following: COC(=O)C1(C)C=C2C(=C(c3ccccc3)C(=O)C2C)CN1 (stereo unspecified)
RESULT: 0.313

QUERY: Please give the documented composite z-score of COC(=O)[C@H](C)NC(=O)CCC1CC(OC(=O)NCCc2ccc(F)cc2)CC2(CCCC(COC(=O)NCCc3ccc(Cl)cc3)O2)O1 (stereo partly specified)
RESULT: 0.393

QUERY: Identify the reported composite z-score for the following entry. COC(=O)[C@@]1(Cc2ccc(F)cc2)[C@H]2c3cc(C(=O)N(C)C)n(Cc4ccc(OC)c(OC)c4)c3C[C@H]2CN1C(=O)c1ccccc1
RESULT: 0.169

QUERY: Answer with the recorded composite z-score for the compound listed here: C=CC[C@]1(C(=O)NCc2ccccc2)N=C(c2ccc(OCCCO)cc2)O[C@H]1c1ccccc1
RESULT: 0.991

QUERY: Supply recorded composite z-score for CO[C@H]1COC(=O)CC=C[C@H](C)[C@@H](NS(=O)(=O)c2ccc(C)cc2)COC(=O)CC=C[C@@H]1C here.
RESULT: -0.197

QUERY: Report composite z-score, nothing else, for this compound: CCOC(=O)[C@H](Cc1ccccc1)NC(=O)CCC1CC(OC(=O)NCc2ccc3c(c2)OCO3)CC2(CCCC(COC(=O)NCc3cccc(C(F)(F)F)c3)O2)O1 (stereo partly specified)
RESULT: 0.348

QUERY: Report composite z-score, nothing else, for this compound: CCCCCCc1nc(CCCc2cc3c(c(CCCCCC)n2)[Si](C(C)C)(C(C)C)O[C@H]3c2ccccc2)cc2c1[Si](C(C)C)(C(C)C)O[C@H]2c1ccccc1
RESULT: 0.163

---

Catalogue of composite z-score readings, one per entry.
# MEASURED_ON: Albumin (Bos taurus)
# ASSAY_EXPLANATION: bovine serum albumin binders on microarray, profiling panel, artefact control for SMM control protein annotation, biochemical, small-molecule microarray, Alexa647 label, 635/667 nm fluorescence (AID 1118);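 also: score merges 667 nm emission intensity and signal-to-noise per printed compound spot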
# CONDITION_NOTES: BSA-A647 binding, fluorescence 635 nm, higher = more signal
Response field accepts a number only; no unit should be typed.

QUERY: Quote composite z-score with test system Albumin (Bos taurus) for Cn1cccc1C(O)C1C=CC2C(=O)NC(=O)C2N1Nc1ccccn1 (stereo not given)
RESULT: 0.809

QUERY: Consider the compound COc1ccc([Si](C)(C)[C@@H]2[C@@H](CCO)O[C@]3(C(=O)N(Cc4ccc(NC(C)=O)cc4)c4ccccc43)[C@H]2C)cc1 tested on Albumin (Bos taurus); state its composite z-score.
RESULT: 0.78

Provenance of the data: PubChem BioAssay
